Tested on: FOXM1^A2 mRNA and FOXM1^BC mRNA
measurement-protocol: Splicing assay (FOXM1), qPCR of isoform mRNAs
Assay type: cell-based
conditions-used: 24 h, LP-LoVo cells; 24 hours; table does not say EC50 or IC50; read-out: FOXM1
measured-parameter: IC50

Asked: // Input: CC1(C)CC(N(c2ccc(-c3ccc(-c4cn[nH]c4)cc3O)nn2)C2CC2)CC(C)(C)N1 [compound 129] . Output its IC50 only.
Given back: 1 to 10 nM

* * *

For each of the compounds below, state its pIC50.
Test system: FOXM1^A2 mRNA and FOXM1^BC mRNA
measurement-protocol: Splicing assay (FOXM1), qPCR of isoform mRNAs
Type: cell-based
conditions-used: 24 h, U-118 cells; 24 hours; table does not say EC50 or IC50; read-out: FOXM1
Method: Various cells lines were treated with the SMSMs described herein. RNA was then isolated, cDNA synthesized, qPCR performed and the levels of various mRNA targets of the SMSMs were determined. In some instances, RNA was isolated, cDNA synthesized, qPCR performed and the levels of mRNA isoforms in the various cell samples were determined. […] The determined isoform 2and isoform 1quantities were then be used to determine the isoform 2: […] at the various compound concentrations. […]
pIC50: −log10 of the molar value.

Asked: Please report the measured pIC50 for `CN(c1ccc(-c2ccc(-c3cn[nH]c3)cc2O)nn1)[C@@H]1C[C@H]2CC[C@@H](C1)N2` tested on FOXM1^A2 mRNA and FOXM1^BC mRNA.
Given back: 7.00 to 7.96

Asked: Quote FOXM1^A2 mRNA and FOXM1^BC mRNA pIC50 for entry `CN(c1ccc(-c2ccc(-c3cn[nH]c3)cc2O)nn1)[C@@H]1C[C@H]2CCC[C@@H](C1)N2` .
Given back: 8.00 to 9.00

* * *

System: FOXM1^A2 mRNA and FOXM1^BC mRNA
measurement-protocol: Splicing assay (FOXM1), qPCR of isoform mRNAs
Assay type: cell-based
conditions-used: Homo sapiens, A673, 24 h, A-673 cells; 24 hours; table does not say EC50 or IC50; read-out: FOXM1
Field: IC50. Provide a value for each of the compounds that follow.

Asked: Give the measured IC50 for `CN(c1ccc(-c2ccc(-c3ccn(C)c(=O)c3)cc2O)nn1)[C@H]1C[C@]2(C)CC[C@](C)(C1)N2`
Given back: 1 to 10 nM

Asked: Provide measured IC50 value, entry: `CC1(C)CC(N(c2ccc(-c3ccc(-c4cn[nH]c4)cc3O)nn2)C2CC2)CC(C)(C)N1`
Given back: < 1 nM

Asked: Tell me IC50 reported for `CN(c1ccc(-c2ccc(-c3cn[nH]c3)cc2O)nn1)[C@@H]1C[C@H]2CCC[C@@H](C1)N2`
Given back: 1 to 10 nM

Asked: Quickly give me recorded IC50 for `COc1cc(-c2ccc(-c3ccc(N(C)[C@H]4C[C@]5(C)CC[C@](C)(C4)N5)nn3)c(O)c2)cnn1`
Given back: < 1 nM

Asked: // fetch IC50 given entry `CN(c1ccc(-c2ccc(-c3cn[nH]c3)cc2O)nn1)[C@H]1C[C@]2(C)CC[C@](C)(C1)N2`
Given back: 1 to 10 nM

Asked: Query IC50 for `CN(c1ccc(-c2cc(F)c(-c3cn[nH]c3)cc2O)nn1)[C@H]1C[C@]2(C)CC[C@](C)(C1)N2`
Given back: < 1 nM

Asked: Quick one: give measured IC50 for `CN(c1ccc(-c2ccc(-c3cn[nH]c3)cc2O)nn1)[C@@H]1C[C@H]2CC[C@@H](C1)N2`
Given back: 11 to 100 nM

The reported measurements were obtained from patent US11008572B2.
